- TEST TARGET: UniProt P30559
- ASSAY PROCEDURE: Oxytocin Receptor Beta-lactamase assay (as detailed in WO 2004/020414)
- MEASUREMENT PARAMETERS: read-out: Ki value (Oxytocin antagonist activity)
EXPERIMENTAL ENDPOINT: pKi
Field pKi (float): negative decimal logarithm of the concentration in molar.

Input: Fill in the blank: the reported pKi of COCCOc1nc(OC)ccc1-n1c(C)nnc1-c1ccc(-c2ccccc2OC)cc1 is ____.
Output: 7.86

----------
Catalogue of compounds with associated Ki
- TEST TARGET: Oxytocin Receptor (Homo sapiens, UniProt P30559)
- Sequence (P30559 1-389): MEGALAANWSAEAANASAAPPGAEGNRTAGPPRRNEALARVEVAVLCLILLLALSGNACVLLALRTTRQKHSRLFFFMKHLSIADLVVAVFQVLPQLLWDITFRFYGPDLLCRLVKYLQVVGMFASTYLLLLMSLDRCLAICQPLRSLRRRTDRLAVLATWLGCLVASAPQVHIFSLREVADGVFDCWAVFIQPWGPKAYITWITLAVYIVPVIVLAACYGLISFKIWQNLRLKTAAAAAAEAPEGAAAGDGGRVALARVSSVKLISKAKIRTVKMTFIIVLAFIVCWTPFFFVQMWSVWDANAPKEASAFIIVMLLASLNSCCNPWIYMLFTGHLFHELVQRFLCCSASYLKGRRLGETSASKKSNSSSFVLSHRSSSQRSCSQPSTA
- ASSAY PROCEDURE: Oxytocin Receptor Beta-lactamase assay (as detailed in WO 2004/020414)
- MEASUREMENT PARAMETERS: read-out: Ki value (Oxytocin antagonist activity)
- Excerpt: A suitable assay for determining the Oxytocin antagonist activity of a compound is detailed in International Patent Application WO 2004/020414.
The response must be a number in nM with no trailing unit.

Examples from the recorded data:
Input: I'm curious: which Ki was measured for COc1ccc(-n2c(C)nnc2-c2ccc(-c3ccccc3OC)cc2OC)cc1 tested on Oxytocin Receptor (Homo sapiens, UniProt P30559)?
Output: 14.6

Input: I'm curious: which Ki was measured for COc1ccc(-n2c(C)nnc2-c2ccc(-c3ccccc3OC)cc2)c(OCCN2CCOCC2)n1 tested on Oxytocin Receptor (Homo sapiens, UniProt P30559)?
Output: 11.2

Consider the additional compound presented here.
Input: I'm curious: which Ki was measured for COc1ccc(-n2c(Cn3nccn3)nnc2-c2ccc(-c3ccccc3OC)cc2)cc1 tested on Oxytocin Receptor (Homo sapiens, UniProt P30559)?
Output: 11.7
